Listed below: pEC50 values for each entry.
ASSAY SYSTEM: hGIPR (Homo sapiens)
Sequence (P48546 22-466): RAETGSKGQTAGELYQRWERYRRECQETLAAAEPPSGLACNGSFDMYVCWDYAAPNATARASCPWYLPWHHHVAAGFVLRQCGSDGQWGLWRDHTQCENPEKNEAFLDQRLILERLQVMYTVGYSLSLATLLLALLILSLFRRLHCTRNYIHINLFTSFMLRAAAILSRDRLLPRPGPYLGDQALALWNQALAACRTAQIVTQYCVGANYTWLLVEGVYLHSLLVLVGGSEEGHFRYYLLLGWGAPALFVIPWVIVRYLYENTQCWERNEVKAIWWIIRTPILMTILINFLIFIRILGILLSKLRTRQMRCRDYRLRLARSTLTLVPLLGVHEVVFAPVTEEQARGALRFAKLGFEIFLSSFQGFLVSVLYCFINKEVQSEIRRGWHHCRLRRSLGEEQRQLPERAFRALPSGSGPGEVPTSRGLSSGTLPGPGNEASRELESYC
MEASUREMENT DESCRIPTION: Functional cAMP activity in the presence of 1% HSA
Type: cell-based
CONDITION NOTES: read-out: cAMP Rel EC50, hGIPR
Starred links: 1 amine or outer side, 2 acyl side, 3 side chain; linkers in the order of their positions; H or OH if unused. Non-standard residues stand in square brackets, D forms with d. Groups on a side chain read outwards from the residue. No end group written: not given here. *: point of attachment. C20 diacid = O=C(O)CCCCCCCCCCCCCCCCCCC(=O)*; C18 diacid = O=C(O)CCCCCCCCCCCCCCCCC(=O)*; αMePhe(2-F) = C[C@](N)(Cc1ccccc1F)C(=O)O; γGlu = O=C(O)[C@H](CCC(=O)[*:2])N[*:1]; αMe4Pal = C[C@](N)(Cc1ccncc1)C(=O)O; αMeY = C[C@](N)(Cc1ccc(O)cc1)C(=O)O; 4Pal = N[C@@H](Cc1ccncc1)C(=O)O; αMeL = CC(C)C[C@](C)(N)C(=O)O; αMeS = C[C@](N)(CO)C(=O)O; Orn = NCCC[C@H](N)C(=O)O; Dab = NCC[C@H](N)C(=O)O; AEEA = NCCOCCOCC(=O)O; Aib = CC(C)(N)C(=O)O
For clarity, pEC50 is expressed as the negative log10 of concentration in mol/L.

SUBSTANCE	PROPERTY NAME	NUMERIC RESULT
H-Y[Aib]QGT[αMePhe(2-F)]TSD[4Pal]SILLDKK([γGlu-γGlu-C18 diacid])AQ[Aib]AFIEYLTEGGPSSGAPPPSGTE-NH2 [Example 554]	pEC50	8.39
H-Y[Aib]QGT[αMePhe(2-F)]TSDYSKLLDKIAQK([AEEA-γGlu-C18 diacid])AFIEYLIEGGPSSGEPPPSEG-NH2 [Example 330]	pEC50	8.13
H-Y[Aib]QGTFTSDFS[Orn][αMeL]LDKK([AEEA-AEEA-γGlu-C18 diacid])AQ[Aib]AFIEYLLE[dA]GPSSG[4Pal]PPPSG[4Pal]-NH2 [Example 258]	pEC50	7.63
Y[Aib]QGTFTSD[4Pal]SQ[αMeL]LDKK([dE-γGlu-C18 diacid])AQ[αMe4Pal]AFIEYLIE[Aib]GPSSGAPPPSGSEE-NH2 [Example 928]	pEC50	7.82
H-Y[Aib]QGTFTSDFSK[αMeL]LDKK([AEEA-γGlu-C20 diacid])AQ[Aib]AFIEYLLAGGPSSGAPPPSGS-NH2 [Example 14]	pEC50	7.46

Which pEC50 is listed for H-Y[Aib]QGT[αMePhe(2-F)]TSD[4Pal][αMeS]I[αMeL]LD[Orn]K([γGlu-γGlu-C18 diacid])AQ[αMe4Pal]EFI[dE][αMeY]LIEGGPSSGAPPPSGGGEE-NH2 [Example 1218] ?
9.20

Next: H-Y[Aib]QGTFTSDFSK[αMeL]LDKK([AEEA-γGlu-C20 diacid])AQ[Aib]AFIEYLLAGGPSSGEPPPSGG-NH2 [Example 6]
7.33

Same question for H-Y[Aib]QGTFTSD[4Pal]S[Dab][αMeL]LDKK([AEEA-γGlu-C18 diacid])AQ[Aib]AFIEYLIE[Aib]GESSGAPPPSGS-NH2 [Example 188] please.
7.36

# repeat for H-Y[Aib]QGT[αMePhe(2-F)]TSD[4Pal][αMeS]I[αMeL]LD[Orn]K([AEEA-γGlu-C18 diacid])AQ[αMe4Pal]EFI[dE][αMeY]LIEGGPSSGAPPPSGGGEE-NH2 [Example 1214]
9.11

How about H-Y[Aib]QGTFTSD[4Pal]SQ[αMeL]LD[Orn]K([γGlu-γGlu-C18 diacid])AQ[αMe4Pal]AFIEYLIAGGPSSGEPPPSGSE [Example 977] ?
7.64

Follow-up entry: H-Y[Aib]QGTFTSDFS[Orn][αMeL]LDKK([AEEA-AEEA-γGlu-C18 diacid])AQ[Aib]AFIEYLLE[Aib]GPSSGEPPPEGS-NH2 [Example 195]
7.54

----------
ASSAY SYSTEM: hGLP-1R (Homo sapiens)
Sequence (P43220 24-463): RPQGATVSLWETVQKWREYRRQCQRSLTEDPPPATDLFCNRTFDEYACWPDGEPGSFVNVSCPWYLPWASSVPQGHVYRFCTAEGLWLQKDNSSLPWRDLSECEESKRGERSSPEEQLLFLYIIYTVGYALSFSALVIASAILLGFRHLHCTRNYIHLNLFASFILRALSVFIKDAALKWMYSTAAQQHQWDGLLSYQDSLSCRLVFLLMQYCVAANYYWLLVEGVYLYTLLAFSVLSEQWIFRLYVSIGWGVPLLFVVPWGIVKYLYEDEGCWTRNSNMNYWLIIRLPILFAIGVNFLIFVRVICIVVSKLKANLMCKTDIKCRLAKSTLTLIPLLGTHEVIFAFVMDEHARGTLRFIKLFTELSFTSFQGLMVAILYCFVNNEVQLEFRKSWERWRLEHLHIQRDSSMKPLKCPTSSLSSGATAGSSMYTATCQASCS
MEASUREMENT DESCRIPTION: Functional cAMP activation in the presence of 0.1% casein (no HSA);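 further: intracellular cAMP rise after 30 min at 37 °C read by HTRF, normalized between buffer only (0%) and maximal control ligand (100%), four-parameter variable-slope fit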
Assay type: cell-based
CONDITION NOTES: in the presence of 0.1% casein (no HSA); geometric mean; read-out: Relative cAMP EC50, hGLP-1R
Starred links: 1 amine or outer side, 2 acyl side, 3 side chain; linkers in the order of their positions; H or OH if unused. Non-standard residues stand in square brackets, D forms with d. Groups on a side chain read outwards from the residue. No end group written: not given here. *: point of attachment. C20 diacid = O=C(O)CCCCCCCCCCCCCCCCCCC(=O)*; C18 diacid = O=C(O)CCCCCCCCCCCCCCCCC(=O)*; γGlu = O=C(O)[C@H](CCC(=O)[*:2])N[*:1]; αMe4Pal = C[C@](N)(Cc1ccncc1)C(=O)O; αMeY = C[C@](N)(Cc1ccc(O)cc1)C(=O)O; αMeF = C[C@](N)(Cc1ccccc1)C(=O)O; 4Pal = N[C@@H](Cc1ccncc1)C(=O)O; αMeL = CC(C)C[C@](C)(N)C(=O)O; αMeS = C[C@](N)(CO)C(=O)O; Orn = NCCC[C@H](N)C(=O)O; AEEA = NCCOCCOCC(=O)O; Aib = CC(C)(N)C(=O)O
PROPERTY NAME: log10 EC50 (log10 of the value in nM)
# values: log10(EC50), units nM

Example substances with recorded log10 EC50:
SUBSTANCE	PROPERTY NAME	NUMERIC RESULT
H-Y[Aib]QGTFTSD[4Pal]SR[αMeL]LDKK([AEEA-γGlu-C18 diacid])AQ[Aib]AFIE[αMeY]LLEGGPSSGAPPPSGS-NH2 [Example 909]	log10 EC50	0.24
H-Y[Aib]QGTFTSDFS[Orn][αMeL]LDKK([AEEA-γGlu-C18 diacid])AQ[Aib]AFIEWLLEGGHSSGAPPPSGT-NH2 [Example 171]	log10 EC50	0.46
H-Y[Aib]QGTFTSDYSK[αMeL]LDKK([AEEA-γGlu-C20 diacid])AQQAFIEYLLAGGPSSGEPPPSGE-NH2 [Example 344]	log10 EC50	0.41
H-Y[Aib]QGTFTSD[4Pal]SQ[αMeL]LDKK([γGlu-γGlu-C18 diacid])AQ[αMe4Pal]AFIE[αMe4Pal]LIEGGPSSGAPPPSGSEE-NH2 [Example 957]	log10 EC50	0.70
H-Y[Aib]QGT[αMeF]TSD[4Pal][αMeS]I[αMeL]LD[Orn]K([AEEA-γGlu-C18 diacid])AQ[αMe4Pal]EFI[dE][αMeY]LIEGGPSSGAPPPSGSE-NH2 [Example 1166]	log10 EC50	-0.32

Tell me the measured log10 EC50 of H-Y[Aib]QGT[αMeF]TSD[4Pal][αMeS]I[αMeL]LD[Orn]K([AEEA-γGlu-C18 diacid])AQ[αMe4Pal]EFI[dE][αMeY]LIEGGPSSGEPPPSGSE-NH2 [Example 1167] , please.
-0.20

Repeat with H-Y[Aib]QGTFTSDYSI[αMeL]LDKQAAK([AEEA-AEEA-γGlu-C20 diacid])QFVEWLIA[Aib]GPSSGEPPPGSG-NH2 [Example 335]
-0.34

Repeat with H-Y[Aib]QGT[αMeF]TSD[4Pal][αMeS]I[αMeL]LD[Orn]K([γGlu-γGlu-C18 diacid])AQ[αMe4Pal]EFI[dE][αMeY]LIEGGPSSGEPPPSGE-NH2 [Example 1171]
-0.28

And then Y[Aib]QGTFTSDFS[Orn][αMeL]LDKK([AEEA-AEEA-γGlu-C18 diacid])AQ[Aib]AFIEYLLE[dA]GPSSGHPPPSGH-NH2 [Example 255] , what is it?
0.28

Same lookup for H-Y[Aib]QGTFTSDFS[Orn][αMeL]LDKK([γGlu-γGlu-C18 diacid])AQ[Aib]AFIEYLLAGGPSSGAPPPEGSEE-NH2 [Example 1051] , please.
0.92

Next up: H-Y[Aib]QGTFTSDFSK[αMeL]LDKK([AEEA-γGlu-C20 diacid])AQ[Aib]AFIEWLIEGGPSSGAPPPSEG-NH2 [Example 40]
-0.16
